TARGET OR TEST SYSTEM: Peroxisome proliferator-activated receptor alpha (Homo sapiens, UniProt Q07869)
Sequence (Q07869 whole entry, the tested form may be a part): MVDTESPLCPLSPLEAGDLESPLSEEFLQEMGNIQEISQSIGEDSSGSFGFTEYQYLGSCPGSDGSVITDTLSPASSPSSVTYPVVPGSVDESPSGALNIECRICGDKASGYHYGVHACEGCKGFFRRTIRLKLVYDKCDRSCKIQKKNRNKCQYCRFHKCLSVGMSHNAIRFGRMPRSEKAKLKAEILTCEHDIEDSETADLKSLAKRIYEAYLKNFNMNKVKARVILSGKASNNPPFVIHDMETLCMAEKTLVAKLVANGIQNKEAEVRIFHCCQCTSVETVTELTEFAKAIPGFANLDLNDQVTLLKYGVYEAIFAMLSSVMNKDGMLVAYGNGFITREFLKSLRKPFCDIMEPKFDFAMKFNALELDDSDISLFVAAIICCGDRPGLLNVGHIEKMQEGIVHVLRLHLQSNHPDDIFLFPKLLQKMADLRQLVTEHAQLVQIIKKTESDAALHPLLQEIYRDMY
ASSAY SUMMARY: Activation of human PPARalpha ligand binding domain expressed in COS7 cells by luciferase reporter gene assay
I'd be grateful if you could share measured pEC50 for these entries.
Give bare numbers, as −log10 of the molar value.

Before answering, review these 3 worked examples.
- COMPOUND: "CCCCCCC(Sc1nc(Cl)cc(Nc2nc(-c3ccc(Cl)cc3)cs2)n1)C(=O)O (stereo not drawn)"
  pEC50: 5.18
- COMPOUND: "CCCCCCC(Sc1nc(Cl)cc(Nc2nc(-c3ccc(Br)cc3)c(C)s2)n1)C(=O)O (stereo not drawn)"
  pEC50: 5.41
- COMPOUND: "CCCCCCC(Sc1nc(Cl)cc(Nc2nc(-c3ccc([N+](=O)[O-])cc3)cs2)n1)C(=O)O (stereo not drawn)"
  pEC50: 5.54

State the recorded pEC50 for every item in the following list.
1. CCC(Sc1nc(Cl)cc(Nc2nc(-c3ccc(Cl)cc3)cs2)n1)C(=O)O (stereo not drawn)
2. CCCCCCC(Sc1nc(Cl)cc(Nc2nc(-c3ccc(F)c(F)c3)cs2)n1)C(=O)O (stereo not drawn)
3. CCCCCCC(Sc1nc(Cl)cc(Nc2nc(-c3ccc(C)cc3)cs2)n1)C(=O)O (stereo not drawn)

[5.44, 5.24, 5.09]

Please give pEC50, item by item, for the list that follows.
1. CCCCC(Sc1nc(Cl)cc(Nc2nc(-c3ccc(Cl)cc3)cs2)n1)C(=O)O (stereo not drawn)
2. CCCCCCC(Sc1nc(Cl)cc(Nc2nc3c(s2)CCc2cc(OC)ccc2-3)n1)C(=O)O (stereo not drawn)

1. 5.19
2. 5.27

---

TARGET OR TEST SYSTEM: Peroxisome proliferator-activated receptor gamma (Homo sapiens) (UniProt P37231)
Sequence (whole entry): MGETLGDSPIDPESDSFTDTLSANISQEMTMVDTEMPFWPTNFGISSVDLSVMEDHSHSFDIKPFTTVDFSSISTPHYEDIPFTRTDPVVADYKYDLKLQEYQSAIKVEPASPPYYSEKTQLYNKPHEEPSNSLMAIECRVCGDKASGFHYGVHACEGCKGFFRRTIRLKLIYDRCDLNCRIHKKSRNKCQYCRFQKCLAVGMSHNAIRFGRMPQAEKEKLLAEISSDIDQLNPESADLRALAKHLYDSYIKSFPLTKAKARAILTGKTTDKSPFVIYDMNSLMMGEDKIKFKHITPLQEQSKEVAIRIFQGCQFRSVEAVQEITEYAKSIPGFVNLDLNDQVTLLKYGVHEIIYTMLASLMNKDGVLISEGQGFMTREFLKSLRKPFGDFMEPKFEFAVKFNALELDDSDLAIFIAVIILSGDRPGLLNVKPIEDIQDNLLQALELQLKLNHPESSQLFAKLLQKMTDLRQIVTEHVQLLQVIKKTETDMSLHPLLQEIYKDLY
ASSAY SUMMARY: Activation of human PPARgamma ligand binding domain expressed in COS7 cells by luciferase reporter gene assay relative to pioglitazone
Type: cell-based
Design: concentration or dose not given beside the values
CONDITION LABEL: COS-7
Assign Activity to each entry below.
Numbers only, in %.

- MOLECULE: "CCCCCCC(Sc1nc(Cl)cc(Nc2nc(-c3ccc(F)cc3F)cs2)n1)C(=O)O (stereo not given)"
  Activity, %: 145

For the 4 molecules below, give their Activity values.
1. CCCCCCC(Sc1nc(Cl)cc(Nc2nc(-c3ccc4c(c3)CCCC4)cs2)n1)C(=O)O (stereo not given)
2. CCC(Sc1nc(Cl)cc(Nc2nc(-c3ccc(Cl)cc3)cs2)n1)C(=O)O (stereo not given)
3. CCCCCCC(Sc1nc(Cl)cc(Nc2nc(-c3ccc(F)c(F)c3)cs2)n1)C(=O)O (stereo not given)
4. CCCCC(Sc1nc(Cl)cc(Nc2nc(-c3ccc(Cl)cc3)cs2)n1)C(=O)O (stereo not given)

1. 107
2. 95
3. 94
4. 136
